# PROTOCOL SUMMARY: Rat pharmacokinetics, plasma levels by sandwich-based ELISA
# Format: in vivo
# APPLIED CONDITIONS: rat, in vivo, sc, subcutaneous infusion; read-out: Half-life after end of infusion
PROPERTY MEASURED: half-life

Request: half-life for Ac-EAVSLKPTGGYGRKKRRQRRR-NH2 [KAI-1678] ?
Response: ~30 min

----------
# PROTOCOL SUMMARY: Rat pharmacokinetics, plasma levels by sandwich-based ELISA
# Format: in vivo
# APPLIED CONDITIONS: rat, in vivo, iv, IV bolus ~3,000 mcg/kg, preliminary; read-out: Terminal half-life
PROPERTY MEASURED: half-life

Request: half-life for Ac-EAVSLKPTGGYGRKKRRQRRR-NH2 [KAI-1678] ?
Response: ~1.1 h
